TESTED SYSTEM: UniProt:P33535
Sequence (P33535 whole entry, looked up): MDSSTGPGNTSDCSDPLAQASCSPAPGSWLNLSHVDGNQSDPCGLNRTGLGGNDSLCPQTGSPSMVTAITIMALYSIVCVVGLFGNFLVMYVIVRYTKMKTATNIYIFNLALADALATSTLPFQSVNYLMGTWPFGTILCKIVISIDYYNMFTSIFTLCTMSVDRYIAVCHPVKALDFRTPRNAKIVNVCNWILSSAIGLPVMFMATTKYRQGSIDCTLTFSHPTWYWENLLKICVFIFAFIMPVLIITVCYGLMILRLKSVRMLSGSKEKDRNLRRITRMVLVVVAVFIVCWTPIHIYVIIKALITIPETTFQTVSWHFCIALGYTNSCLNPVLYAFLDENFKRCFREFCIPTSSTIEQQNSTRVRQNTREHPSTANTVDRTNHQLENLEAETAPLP
ASSAY METHOD TEXT: Binding affinity was measured in cloned Opioid receptor mu 1 expressed in CHO cells using [3H]- DAMGO as radioligand.
Square brackets hold non-standard residues; d marks the D form. Peptide text beside a SMILES is read from it. * marks the point of attachment. ξ: configuration not given here. Tyr(Nα,Nα-Bn2) = O=C([C@H](Cc1ccc(O)cc1)N(Cc1ccccc1)Cc1ccccc1)*; Tyr(Nα,Nα-allyl2) = C=CCN(CC=C)[C@@H](Cc1ccc(O)cc1)C(=O)*; Phe(4-NH2) = Nc1ccc(C[C@H](N)C(=O)O)cc1; Aib = CC(C)(N)C(=O)O; BrAc = O=C(CBr)*; ξA = CC(N)C(=O)O
READOUT LABEL: IC50 (µM)
Just the number please, in µM, no unit attached.

Here's what some known entries look like.
1) CC(C)C[C@H](NC(=O)[C@H](Cc1ccc(NC(=O)CBr)cc1)NC(=O)CNC(=O)CNC(=O)[C@H](Cc1ccc(O)cc1)N(Cc1ccccc1)Cc1ccccc1)C(=O)O ({Tyr(Nα,Nα-Bn2)}-GG[Phe(4-NH2)](BrAc)L-OH)	9.1
2) CC(C)C[C@H](NC(=O)[C@H](Cc1ccccc1)NC(=O)CNC(=O)CNC(=O)[C@H](Cc1ccc(O)cc1)N(Cc1ccccc1)Cc1ccccc1)C(=O)O (HELM PEPTIDE1{[O=C([C@H](Cc1ccc(O)cc1)N(Cc1ccccc1)Cc1ccccc1)[*:2]].G.G.F.L}$$$$V2.0)	1.6
3) CC(C)C[C@H](NC(=O)[C@H](Cc1ccc(NCCl)cc1)NC(=O)CNC(=O)CNC(=O)[C@H](Cc1ccc(O)cc1)N(Cc1ccccc1)Cc1ccccc1)C(=O)O	19
4) C=CCN(CC=C)[C@@H](Cc1ccc(O)cc1)C(=O)NC(C)(C)C(=O)NC(C)(C)C(=O)N[C@@H](Cc1ccccc1)C(=O)N[C@@H](CC(C)C)C(=O)O (HELM PEPTIDE1{[C=CCN(CC=C)[C@@H](Cc1ccc(O)cc1)C(=O)[*:2]].[Aib].[Aib].F.L}$$$$V2.0)	18.9
5) C=CCN(CC=C)[C@@H](Cc1ccc(O)cc1)C(=O)NC(C)(C)C(=O)NC(C)C(=O)N[C@@H](Cc1ccc(N)cc1)C(=O)N[C@@H](CC(C)C)C(=O)O (stereo partly drawn) ({Tyr(Nα,Nα-allyl2)}-[Aib][ξA][Phe(4-NH2)]L-OH)	87.7

Now for the molecule whose IC50 we want.
I would be grateful if you could share the reported IC50 for CC(C)C[C@H](NC(=O)[C@H](Cc1ccc(N=C=S)cc1)NC(=O)CNC(=O)CNC(=O)[C@H](Cc1ccc(O)cc1)N(Cc1ccccc1)Cc1ccccc1)C(=O)O . 1.9
